# test_target: T1, extracellular domain (ECD) of human αKlotho, amino acids E34-S981 with C-terminal 6-His tag (R&D Systems … (human, UniProt Q9UEF7 34-981))
# T1 construct: range 34-981; also called αKlotho (aa34-981); target antigen
# T1 sequence: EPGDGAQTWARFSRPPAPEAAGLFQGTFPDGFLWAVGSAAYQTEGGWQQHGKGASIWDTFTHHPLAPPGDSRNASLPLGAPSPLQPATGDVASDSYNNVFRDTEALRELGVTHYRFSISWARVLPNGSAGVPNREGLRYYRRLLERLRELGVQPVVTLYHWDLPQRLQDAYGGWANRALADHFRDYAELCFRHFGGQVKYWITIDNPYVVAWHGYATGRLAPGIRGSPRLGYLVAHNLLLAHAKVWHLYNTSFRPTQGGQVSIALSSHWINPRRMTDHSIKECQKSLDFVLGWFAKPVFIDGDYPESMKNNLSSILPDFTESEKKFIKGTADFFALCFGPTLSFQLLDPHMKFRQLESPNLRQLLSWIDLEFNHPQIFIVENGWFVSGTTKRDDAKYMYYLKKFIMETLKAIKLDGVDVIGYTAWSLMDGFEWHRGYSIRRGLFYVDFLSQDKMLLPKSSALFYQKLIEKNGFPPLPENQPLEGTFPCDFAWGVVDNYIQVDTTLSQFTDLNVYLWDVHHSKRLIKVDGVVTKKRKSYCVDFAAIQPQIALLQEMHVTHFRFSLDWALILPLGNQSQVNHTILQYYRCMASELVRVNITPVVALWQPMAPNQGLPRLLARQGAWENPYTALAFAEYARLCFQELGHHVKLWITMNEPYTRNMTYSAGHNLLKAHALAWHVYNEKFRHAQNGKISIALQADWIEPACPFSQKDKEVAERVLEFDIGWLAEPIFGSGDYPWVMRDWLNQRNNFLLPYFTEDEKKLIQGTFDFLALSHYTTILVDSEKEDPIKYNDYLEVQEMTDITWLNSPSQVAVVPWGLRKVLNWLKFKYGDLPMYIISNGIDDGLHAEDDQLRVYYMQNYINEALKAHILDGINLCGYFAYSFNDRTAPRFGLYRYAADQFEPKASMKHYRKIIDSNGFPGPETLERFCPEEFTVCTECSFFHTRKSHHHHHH
# assay_comment: SPR, Fab captured by anti-H+L IgG, αKlotho injected at 50 to 6.25 ug/ml, Langmuir fit [continued]
endpoint: Kd (nM)

| binder | unit | value_reported |
| --- | --- | --- |
| anti-αKlotho Fab clone 4818 (Fab, V domains shown, Fab (also as Fab-phage); FLAG tag on light chain; also called sb187) VH: EVQLVESGGGLVQPGGSLRLSCAASGFNISYSSIHWVRQAPGKGLEWVASISPYSGYTYYADSVKGRFTISADTSKNTAYLQMNSLRAEDTAVYYCARSGHSVYWWWSHFGMDYWGQGTLVTVSS VL: DIQMTQSPSSLSASVGDRVTITCRASQSVSSAVAWYQQKPGKAPKLLIYSASSLYSGVPSRFSGSRSGTDFTLTISSLQPEDFATYYCQQPYSPITFGQGTKVEIKR | nM | 1.05 |
| anti-αKlotho Fab clone 4829 (Fab, V domains shown, Fab (also as Fab-phage); FLAG tag on light chain; also called sb198) VH: EVQLVESGGGLVQPGGSLRLSCAASGFNISSYYIHWVRQAPGKGLEWVASIYSSYGYTSYADSVKGRFTISADTSKNTAYLQMNSLRAEDTAVYYCARYSWSPYWWWAYSGLDYWGQGTLVTVSS VL: DIQMTQSPSSLSASVGDRVTITCRASQSVSSAVAWYQQKPGKAPKLLIYSASSLYSGVPSRFSGSRSGTDFTLTISSLQPEDFATYYCQQGGGLITFGQGTKVEIKR | nM | 0.907 |
| anti-αKlotho Fab clone 4809 (Fab, V domains shown, Fab (also as Fab-phage); FLAG tag on light chain; also called sb178) VH: EVQLVESGGGLVQPGGSLRLSCAASGFNIYSYYIHWVRQAPGKGLEWVASIYSYYGSTSYADSVKGRFTISADTSKNTAYLQMNSLRAEDTAVYYCARSGPWAWYGLDYWGQGTLVTVSS VL: DIQMTQSPSSLSASVGDRVTITCRASQSVSSAVAWYQQKPGKAPKLLIYSASSLYSGVPSRFSGSRSGTDFTLTISSLQPEDFATYYCQQSGWAYHPITFGQGTKVEIKR | nM | 0.46 |
| anti-αKlotho Fab clone 4828 (Fab, V domains shown, Fab (also as Fab-phage); FLAG tag on light chain; also called sb197) VH: EVQLVESGGGLVQPGGSLRLSCAASGFNFSSSSIHWVRQAPGKGLEWVASISSSYGYTYYADSVKGRFTISADTSKNTAYLQMNSLRAEDTAVYYCARYVVGGWWYHYGMDYWGQGTLVTVSS VL: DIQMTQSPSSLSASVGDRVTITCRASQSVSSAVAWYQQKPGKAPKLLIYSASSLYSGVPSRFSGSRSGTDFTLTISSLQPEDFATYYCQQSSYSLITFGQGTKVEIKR | nM | 2.48 |
| anti-αKlotho Fab clone 4830 (Fab, V domains shown, Fab (also as Fab-phage); FLAG tag on light chain; also called sb199) VH: EVQLVESGGGLVQPGGSLRLSCAASGFNIYYSSIHWVRQAPGKGLEWVASIYPYYSYTYYADSVKGRFTISADTSKNTAYLQMNSLRAEDTAVYYCARSVASALDYWGQGTLVTVSS VL: DIQMTQSPSSLSASVGDRVTITCRASQSVSSAVAWYQQKPGKAPKLLIYSASSLYSGVPSRFSGSRSGTDFTLTISSLQPEDFATYYCQQYSWYWYSPITFGQGTKVEIKR | nM | 1.53 |
